biological target: prolyl endopeptidase (PEP) (Rattus norvegicus)
Sequence (O70196 whole entry): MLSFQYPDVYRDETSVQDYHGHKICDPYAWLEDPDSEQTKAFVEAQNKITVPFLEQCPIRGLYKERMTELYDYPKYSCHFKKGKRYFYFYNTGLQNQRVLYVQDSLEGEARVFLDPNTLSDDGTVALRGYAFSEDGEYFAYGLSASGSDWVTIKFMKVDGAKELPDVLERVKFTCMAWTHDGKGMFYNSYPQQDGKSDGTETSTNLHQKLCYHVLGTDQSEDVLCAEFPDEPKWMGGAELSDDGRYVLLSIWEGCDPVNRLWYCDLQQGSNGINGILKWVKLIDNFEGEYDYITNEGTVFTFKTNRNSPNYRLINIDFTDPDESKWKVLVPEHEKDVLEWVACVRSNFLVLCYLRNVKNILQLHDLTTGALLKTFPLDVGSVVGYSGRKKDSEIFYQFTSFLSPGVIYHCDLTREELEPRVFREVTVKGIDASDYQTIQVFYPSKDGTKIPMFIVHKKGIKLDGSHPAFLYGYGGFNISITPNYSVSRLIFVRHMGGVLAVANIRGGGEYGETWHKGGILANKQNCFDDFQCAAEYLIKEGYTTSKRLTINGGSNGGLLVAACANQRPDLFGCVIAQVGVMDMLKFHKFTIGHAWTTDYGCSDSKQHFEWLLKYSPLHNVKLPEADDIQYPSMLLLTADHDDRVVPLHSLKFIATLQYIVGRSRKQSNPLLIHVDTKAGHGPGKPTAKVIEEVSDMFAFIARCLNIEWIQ
Endpoint: IC50

Enquiry: Form: Entry = Cn1c(=O)cc(N2CCC[C@@H](N)C2)n(Cc2cc(F)ccc2C#N)c1=O [trelagliptin] | System = prolyl endopeptidase (PEP) (Rattus norvegicus) | IC50 = ____
Return: > 100 µM

* * *

biological target: dog plasma DPP-4 activity (Canis lupus familiaris, UniProt A0A8I3Q2I8); construct: tissue Kitayama Labes Co., Ltd. (animals); test: Inhibition of plasma DPP-4 activity, dog plasma (GP-pNA)
Sequence (A0A8I3Q2I8 1-765): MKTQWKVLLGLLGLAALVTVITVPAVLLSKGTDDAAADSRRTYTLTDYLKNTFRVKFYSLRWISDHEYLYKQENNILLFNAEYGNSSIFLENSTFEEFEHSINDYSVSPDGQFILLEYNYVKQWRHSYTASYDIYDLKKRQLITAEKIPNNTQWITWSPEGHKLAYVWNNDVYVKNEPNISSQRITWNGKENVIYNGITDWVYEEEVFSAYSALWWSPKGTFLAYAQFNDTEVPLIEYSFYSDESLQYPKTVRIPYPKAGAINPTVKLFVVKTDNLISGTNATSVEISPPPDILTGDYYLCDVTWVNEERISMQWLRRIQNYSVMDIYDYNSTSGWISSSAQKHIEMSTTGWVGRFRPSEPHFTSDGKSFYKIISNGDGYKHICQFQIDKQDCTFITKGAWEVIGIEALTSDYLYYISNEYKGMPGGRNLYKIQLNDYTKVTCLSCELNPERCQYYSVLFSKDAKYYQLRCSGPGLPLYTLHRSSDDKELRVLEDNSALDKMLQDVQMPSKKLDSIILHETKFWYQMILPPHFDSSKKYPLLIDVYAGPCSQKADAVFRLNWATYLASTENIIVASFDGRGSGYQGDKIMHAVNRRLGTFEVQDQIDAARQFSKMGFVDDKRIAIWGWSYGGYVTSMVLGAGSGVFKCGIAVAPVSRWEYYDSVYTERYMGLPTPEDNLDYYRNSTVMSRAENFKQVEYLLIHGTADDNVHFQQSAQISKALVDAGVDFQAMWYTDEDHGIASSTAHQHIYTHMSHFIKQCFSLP
Endpoint: pIC50
Notebook: values listed as pIC50 are -log10 of the concentration (mol/L).

Enquiry: Report pIC50 for Cn1c(=O)cc(N2CCC[C@@H](N)C2)n(Cc2cc(F)ccc2C#N)c1=O [trelagliptin] please.
Return: 8.21
